Target: human NK1 receptor (Homo sapiens)
Sequence (P25103 whole entry): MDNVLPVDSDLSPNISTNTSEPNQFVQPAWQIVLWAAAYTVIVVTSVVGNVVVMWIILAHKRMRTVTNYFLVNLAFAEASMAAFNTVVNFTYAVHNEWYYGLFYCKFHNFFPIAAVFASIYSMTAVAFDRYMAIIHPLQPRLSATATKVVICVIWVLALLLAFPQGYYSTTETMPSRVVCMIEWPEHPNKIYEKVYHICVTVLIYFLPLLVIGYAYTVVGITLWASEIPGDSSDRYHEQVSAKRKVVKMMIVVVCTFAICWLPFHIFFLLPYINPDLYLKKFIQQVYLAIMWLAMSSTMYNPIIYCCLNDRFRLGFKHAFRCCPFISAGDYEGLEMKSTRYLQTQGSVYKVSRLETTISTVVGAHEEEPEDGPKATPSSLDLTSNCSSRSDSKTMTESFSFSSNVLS
Assay: NK1 receptor binding, [3H]substance P displacement, CHO cell membranes
Settings: first value of the cell pKi NK1/NK3; human NK1 receptor, [3H]substance P
assay_readout: Ki (nM)

Reference set, count: 9
CCN(C(C)=O)C1CCN(c2cc(-c3ccccc3Cl)c(N(C)C(=O)C(C)(C)c3cc(C(F)(F)F)cc(C(F)(F)F)c3)cn2)C1 (racemic)
2.29
C[C@@H](CO)Nc1cc(-c2ccccc2Cl)c(N(C)C(=O)C(C)(C)c2cc(C(F)(F)F)cc(C(F)(F)F)c2)cn1
1.35
CN(C(=O)C(C)(C)c1cc(C(F)(F)F)cc(C(F)(F)F)c1)c1cnc(N2C[C@H](O)C[C@H]2CO)cc1-c1cccc(Br)c1
1.95
Cc1cc(F)ccc1-c1cc(N2CCC[C@H]2CO)ncc1N(C)C(=O)C(C)(C)c1cc(Cl)cc(OC(F)F)c1
3.55
Cc1ccccc1-c1cc(N(C)CCO)ncc1N(C)C(=O)C(C)(C)c1cc(C(F)(F)F)cc(C(F)(F)F)c1
2.09
Cc1cc(F)ccc1-c1cc(N2CCC(=O)C2)ncc1N(C)C(=O)C(C)(C)c1cc(C(F)(F)F)cc(C(F)(F)F)c1
2.09
CC(=O)N(C)[C@@H]1CCN(c2cc(-c3ccc(F)cc3C)c(N(C)C(=O)C(C)(C)c3cc(C(F)(F)F)cc(C(F)(F)F)c3)cn2)C1
1.7
Cc1cc(F)ccc1-c1cc(N2CC=C[C@H]2CO)ncc1N(C)C(=O)C(C)(C)c1cc(C(F)(F)F)cc(C(F)(F)F)c1
2.51
Cc1cc(F)ccc1-c1cc(N2CCC[C@@H]2CO)ncc1N(C)C(=O)C(C)(C)c1cc(C(F)(F)F)cc(C(F)(F)F)c1
1.12

(P) COc1cc(Cl)cc(C(C)(C)C(=O)N(C)c2cnc(N3C[C@H](O)C[C@H]3CO)cc2-c2ccc(F)cc2C)c1
(Q) Cc1cc(F)ccc1-c1cc(N2CC[C@@H](O)[C@H]2CO)ncc1N(C)C(=O)C(C)(C)c1cc(C(F)(F)F)cc(C(F)(F)F)c1
(R) Cc1ccccc1-c1cc(N2C[C@H](O)C[C@H]2CO)ncc1N(C)C(=O)C(C)(C)c1cc(F)cc(F)c1
(S) COc1cc(Cl)cc(C(C)(C)C(=O)N(C)c2cnc(N3CCC[C@H]3CO)cc2-c2ccccc2C)c1
Please produce an ascending ranking of these compounds based on Ki. List the labels according to the requested ordering.
P, Q, R, S
(P: 0.977 nM, Q: 1.74 nM, R: 2.63 nM, S: 3.89 nM)

* * *

Target: Recombinant human NK3 (hNK3) receptor (Homo sapiens)
Construct: expressed in transfected cells
Sequence (P29371 whole entry): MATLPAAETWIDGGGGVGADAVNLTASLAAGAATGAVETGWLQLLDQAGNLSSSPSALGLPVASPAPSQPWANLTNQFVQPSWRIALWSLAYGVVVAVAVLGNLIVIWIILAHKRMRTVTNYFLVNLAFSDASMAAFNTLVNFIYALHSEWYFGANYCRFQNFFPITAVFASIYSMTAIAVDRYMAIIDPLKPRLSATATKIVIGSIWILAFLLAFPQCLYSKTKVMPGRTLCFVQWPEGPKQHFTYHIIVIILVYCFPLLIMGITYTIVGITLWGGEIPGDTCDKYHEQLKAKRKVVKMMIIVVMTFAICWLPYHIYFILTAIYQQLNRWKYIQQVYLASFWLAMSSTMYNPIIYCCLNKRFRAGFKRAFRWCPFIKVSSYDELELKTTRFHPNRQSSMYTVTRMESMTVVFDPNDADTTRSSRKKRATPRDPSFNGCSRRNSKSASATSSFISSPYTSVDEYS
Experiment: NK3 receptor binding, [3H]SR142801 displacement, membrane preparations
Conditions: second value of the cell NK1/NK3; read-out: pKi NK3 (converted)
assay_readout: Ki (nM)

CN(C(=O)C(C)(C)c1cc(C(F)(F)F)cc(C(F)(F)F)c1)c1cnc(N2CCC[C@H]2CO)cc1-c1ccc(F)cc1
2.51
COc1cc(OC)cc(C(C)(C)C(=O)N(C)c2cnc(N3CCC[C@H]3CO)cc2-c2ccc(F)cc2C)c1
4.68
CN(C(=O)C(C)(C)c1cc(C(F)(F)F)cc(C(F)(F)F)c1)c1cnc(N2C[C@@H](O)C[C@H]2CO)cc1-c1ccc(F)cc1F
7.76

(P) CN(C(=O)C(C)(C)c1cc(C(F)(F)F)cc(C(F)(F)F)c1)c1cnc(N2C[C@@H](O)C[C@H]2CO)cc1-c1cccc(F)c1
(Q) Cc1ccccc1-c1cc(N2C[C@H](F)C[C@H]2CO)ncc1N(C)C(=O)C(C)(C)c1cc(C(F)(F)F)cc(C(F)(F)F)c1
(R) CN(C(=O)C(C)(C)c1cc(C(F)(F)F)cc(C(F)(F)F)c1)c1cnc(N2CCC[C@H]2CO)cc1-c1ccccc1
Reorder: Ki, max to min. List the labels according to the requested ordering.
P, R, Q
